B1: TIA1 (parent)
chain: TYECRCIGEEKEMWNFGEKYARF

# Variants of: B1
# PROTOCOL_NOTES: protein stability index of a GFP-peptide fusion (GPS, HEK-293T) (PSI 1-6); higher = more stable;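 also: lentivirally expressed fusions sorted by FACS into six bins by GFP to DsRed ratio, PSI derived from sequencing read proportions per bin multiplied by bin number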
# CONDITION_PARAMETERS: c terminus: native
Record true (1) whenever protein stability index is at 2 or higher; record false (0) when lower.

Worked examples follow.
DYECRCIGEEKEMWNFGEKYARF [T1D]; true (1)
YYECRCIGEEKEMWNFGEKYARF [T1Y]; false (0)
TYECRCIGEEKEMWSFGEKYARF [N15S]; true (1)
QYECRCIGEEKEMWNFGEKYARF [T1Q]; true (1)
TYECRCIGETKEMWNFGEKYARF [E10T]; false (0)

Please look at the following variant next.
Request: Test whether the variant TYERRCIGEEKEMWNFGEKYARF [C4R] records protein stability index of 2 or higher.
Response: true (1)
